testTarget: human NR1/NR2B (Homo sapiens (Human), UniProt Q05586+Q13224)
Sequence (Q13224 27-1484, other chains not shown): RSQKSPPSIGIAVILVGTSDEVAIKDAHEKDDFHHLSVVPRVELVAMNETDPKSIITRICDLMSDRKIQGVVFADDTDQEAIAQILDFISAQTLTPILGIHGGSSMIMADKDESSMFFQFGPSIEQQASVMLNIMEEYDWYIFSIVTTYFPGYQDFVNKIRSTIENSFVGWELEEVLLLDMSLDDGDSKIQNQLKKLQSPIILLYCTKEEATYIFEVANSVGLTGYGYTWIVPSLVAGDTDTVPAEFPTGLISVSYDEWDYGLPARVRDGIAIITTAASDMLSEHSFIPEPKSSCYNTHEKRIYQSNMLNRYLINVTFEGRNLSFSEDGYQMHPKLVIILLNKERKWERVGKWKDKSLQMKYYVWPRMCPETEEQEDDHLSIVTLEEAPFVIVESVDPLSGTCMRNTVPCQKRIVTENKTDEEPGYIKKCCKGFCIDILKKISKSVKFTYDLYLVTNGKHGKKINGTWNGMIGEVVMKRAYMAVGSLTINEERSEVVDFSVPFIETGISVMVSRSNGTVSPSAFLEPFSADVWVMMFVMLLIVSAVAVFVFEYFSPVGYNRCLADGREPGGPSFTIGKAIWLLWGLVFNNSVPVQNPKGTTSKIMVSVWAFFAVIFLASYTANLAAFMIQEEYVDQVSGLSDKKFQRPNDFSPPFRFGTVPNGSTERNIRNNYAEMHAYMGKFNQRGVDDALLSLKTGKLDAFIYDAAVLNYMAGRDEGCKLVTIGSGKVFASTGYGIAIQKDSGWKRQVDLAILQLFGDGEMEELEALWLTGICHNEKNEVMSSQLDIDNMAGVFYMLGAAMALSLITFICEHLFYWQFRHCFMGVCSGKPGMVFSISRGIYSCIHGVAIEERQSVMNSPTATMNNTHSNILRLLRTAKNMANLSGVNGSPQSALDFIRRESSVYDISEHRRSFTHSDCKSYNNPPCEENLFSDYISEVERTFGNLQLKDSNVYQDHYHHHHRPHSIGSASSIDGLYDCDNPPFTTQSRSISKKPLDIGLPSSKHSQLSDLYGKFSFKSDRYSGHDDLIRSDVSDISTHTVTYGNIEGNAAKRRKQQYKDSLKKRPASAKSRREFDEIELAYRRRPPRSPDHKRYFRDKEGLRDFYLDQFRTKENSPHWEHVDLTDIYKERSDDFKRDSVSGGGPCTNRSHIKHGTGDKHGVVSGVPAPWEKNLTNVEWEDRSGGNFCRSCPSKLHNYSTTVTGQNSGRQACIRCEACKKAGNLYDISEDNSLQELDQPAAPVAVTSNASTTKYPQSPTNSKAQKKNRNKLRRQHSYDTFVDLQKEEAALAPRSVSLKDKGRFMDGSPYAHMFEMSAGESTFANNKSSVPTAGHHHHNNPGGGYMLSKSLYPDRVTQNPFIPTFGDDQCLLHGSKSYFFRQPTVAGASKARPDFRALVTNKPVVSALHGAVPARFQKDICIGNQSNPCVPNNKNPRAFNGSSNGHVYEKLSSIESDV
protocolDescription: NR2B antagonist activity: calcium influx (Fluo-4) assay in HEK293 cells
Type: cell-based
conditionSummary: Table 1.4B; read-out: NR2B IC50
Field: pIC50. Provide a value for each of the compounds that follow.
Numbers only, as −log10 of the molar value.

> print(dat)
                                   compound  measvalue
1  Cc1ccc(COC(=O)N2CC[C@H](CNc3nccn4cnnc34)C(F)(F)C2)cc1 [E1-1.2^B′]       7.68
2  O=C(OCc1ccc(F)cc1)N1CC[C@H](CNc2nccn3cnnc23)C(F)(F)C1 [E1-1.4^B′]       7.69

Each compound below has a reported value. Please supply its pIC50.
1. Cc1ccc(COC(=O)N2CC[C@H](CNc3cnccn3)C(F)(F)C2)cc1 [E1-21.2^B′]
2. Cc1ccc(COC(=O)N2CC[C@@H](CNc3nccn4cnnc34)C(F)(F)C2)cc1 [E2-1.2^B′]
3. Cc1ccc(COC(=O)N2CC[C@H](CNc3cnc(C)cn3)C(F)(F)C2)cc1 [E1-21.26^B′]
4. CCc1ccc(COC(=O)N2CC[C@H](CNc3nccn4cnnc34)C(F)(F)C2)cc1 [E1-1.5^B′]
5. O=C(OCc1ccc(Cl)cc1)N1CC[C@H](CNc2nccn3cnnc23)C(F)(F)C1 [E1-1.3^B′]

Reply:
1. 7.86
2. 6.81
3. 7.54
4. 8.02
5. 7.83

----------
testTarget: native rat brain NR2B receptors (Rattus norvegicus (Rat), UniProt P35439+Q00960)
Sequence (Q00960 27-1482, other chains not shown): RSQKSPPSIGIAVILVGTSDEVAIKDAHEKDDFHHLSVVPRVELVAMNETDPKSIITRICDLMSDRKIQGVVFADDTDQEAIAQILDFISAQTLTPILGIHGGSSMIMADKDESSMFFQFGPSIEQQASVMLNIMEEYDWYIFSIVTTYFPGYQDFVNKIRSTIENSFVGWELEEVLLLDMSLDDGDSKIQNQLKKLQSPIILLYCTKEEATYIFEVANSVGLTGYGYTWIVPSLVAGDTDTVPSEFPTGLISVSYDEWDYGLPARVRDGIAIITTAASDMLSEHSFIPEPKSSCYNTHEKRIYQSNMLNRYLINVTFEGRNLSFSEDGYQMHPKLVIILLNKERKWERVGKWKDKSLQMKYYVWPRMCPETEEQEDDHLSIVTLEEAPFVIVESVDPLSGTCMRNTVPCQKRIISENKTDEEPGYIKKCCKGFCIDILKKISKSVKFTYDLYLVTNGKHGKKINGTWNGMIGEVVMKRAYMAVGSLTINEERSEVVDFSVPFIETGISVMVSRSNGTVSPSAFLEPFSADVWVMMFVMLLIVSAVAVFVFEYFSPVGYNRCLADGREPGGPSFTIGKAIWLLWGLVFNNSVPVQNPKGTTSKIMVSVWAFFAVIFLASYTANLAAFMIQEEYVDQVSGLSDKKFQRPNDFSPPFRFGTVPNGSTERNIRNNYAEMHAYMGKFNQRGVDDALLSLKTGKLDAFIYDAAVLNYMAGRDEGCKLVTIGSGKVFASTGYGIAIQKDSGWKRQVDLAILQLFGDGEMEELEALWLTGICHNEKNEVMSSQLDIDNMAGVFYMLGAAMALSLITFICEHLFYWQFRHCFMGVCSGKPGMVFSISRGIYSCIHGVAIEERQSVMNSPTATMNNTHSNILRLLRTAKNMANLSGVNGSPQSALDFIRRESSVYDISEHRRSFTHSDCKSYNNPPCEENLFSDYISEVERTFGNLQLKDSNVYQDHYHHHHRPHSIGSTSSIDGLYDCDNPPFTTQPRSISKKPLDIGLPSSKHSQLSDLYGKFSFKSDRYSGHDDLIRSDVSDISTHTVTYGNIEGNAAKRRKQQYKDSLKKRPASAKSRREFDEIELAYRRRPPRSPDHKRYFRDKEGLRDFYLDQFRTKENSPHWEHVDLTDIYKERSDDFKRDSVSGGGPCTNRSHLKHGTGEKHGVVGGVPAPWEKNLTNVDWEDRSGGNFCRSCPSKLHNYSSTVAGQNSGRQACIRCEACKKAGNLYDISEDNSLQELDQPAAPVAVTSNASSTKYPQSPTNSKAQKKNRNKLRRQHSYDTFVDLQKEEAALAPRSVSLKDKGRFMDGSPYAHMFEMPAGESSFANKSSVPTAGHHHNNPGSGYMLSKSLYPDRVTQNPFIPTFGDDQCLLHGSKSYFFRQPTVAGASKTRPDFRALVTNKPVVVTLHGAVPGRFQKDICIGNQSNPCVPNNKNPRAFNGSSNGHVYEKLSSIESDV
protocolDescription: NR2B radioligand binding assay in rat brain using [3H] (E)-N1-(2-methoxybenzyl)-cinnamidine
conditionSummary: high affinity site, rat brain membranes; read-out: inhibition constant (Ki), mean
assayEndpoint: Ki (nM)
Numbers only, in nM.

Ask: Item under review: COc1ccccc1CNC(=N)/C=C/c1ccccc1 [(E)-N1-(2-methoxybenzyl)-cinnamidine, reference compound] . Reported Ki?
Reply: 0.22

----------
testTarget: hERG channel (Homo sapiens (Human), UniProt Q12809)
Sequence (Q12809 whole entry): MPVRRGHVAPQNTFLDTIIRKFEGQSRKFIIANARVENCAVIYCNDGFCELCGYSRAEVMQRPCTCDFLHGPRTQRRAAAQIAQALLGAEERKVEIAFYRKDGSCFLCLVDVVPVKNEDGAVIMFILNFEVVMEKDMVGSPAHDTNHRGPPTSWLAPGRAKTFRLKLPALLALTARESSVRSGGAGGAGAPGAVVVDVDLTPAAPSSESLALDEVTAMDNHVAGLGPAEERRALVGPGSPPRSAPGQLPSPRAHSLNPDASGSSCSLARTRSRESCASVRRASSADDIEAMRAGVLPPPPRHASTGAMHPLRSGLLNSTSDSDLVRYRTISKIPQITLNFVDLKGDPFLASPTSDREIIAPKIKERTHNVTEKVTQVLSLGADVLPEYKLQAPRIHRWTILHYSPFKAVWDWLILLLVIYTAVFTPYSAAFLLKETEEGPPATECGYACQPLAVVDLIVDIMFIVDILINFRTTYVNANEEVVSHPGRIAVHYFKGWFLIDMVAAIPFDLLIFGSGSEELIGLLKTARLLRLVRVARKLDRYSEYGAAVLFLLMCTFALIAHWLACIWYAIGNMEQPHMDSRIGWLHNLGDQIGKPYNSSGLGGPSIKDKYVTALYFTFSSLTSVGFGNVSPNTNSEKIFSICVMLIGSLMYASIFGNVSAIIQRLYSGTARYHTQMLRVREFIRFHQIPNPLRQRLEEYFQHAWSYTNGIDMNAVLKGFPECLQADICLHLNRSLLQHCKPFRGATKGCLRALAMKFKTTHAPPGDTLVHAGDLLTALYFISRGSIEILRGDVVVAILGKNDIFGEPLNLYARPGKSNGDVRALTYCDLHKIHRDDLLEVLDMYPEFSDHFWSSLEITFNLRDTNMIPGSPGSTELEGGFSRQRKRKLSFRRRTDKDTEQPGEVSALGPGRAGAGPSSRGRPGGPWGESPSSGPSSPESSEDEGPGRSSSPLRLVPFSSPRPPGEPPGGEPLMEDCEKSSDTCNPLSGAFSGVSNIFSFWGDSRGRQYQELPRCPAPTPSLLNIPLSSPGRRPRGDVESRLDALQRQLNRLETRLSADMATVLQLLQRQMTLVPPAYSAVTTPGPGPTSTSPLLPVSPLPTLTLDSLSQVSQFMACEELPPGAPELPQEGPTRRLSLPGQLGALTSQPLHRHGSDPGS
protocolDescription: hERG channel inhibition, whole cell patch clamp in HEK293 cells
Assay type: cell-based
conditionSummary: Table 1.3B
Structures can show the parent of a compound that is named as a salt.
assayEndpoint: IC50 (µM)
One number for each entry, in µM.

Field: example entries. Status: answers known.
> print(dat)
                                   compound  valueunits  measvalue
1  O=C(OCc1ccc(C(F)F)cc1)N1CC[C@H](CNc2ncccn2)C(F)(F)C1 [E1-22.6^B′, mesylate]          µM        7.3
2  O=C(OC1Cc2ccccc2C1)N1CC[C@H](CNc2ncccn2)C(F)(F)C1 [III-E1-22.1^B′, methanesulfonate]          µM         35
3  Cc1ccc(COC(=O)N2CC[C@H](CNc3ccccn3)C(F)(F)C2)cc1 [E1-23.2^B′]          µM        5.6

Please look at the following compound next.
Ask: Item under review: Cc1ccc(COC(=O)N2CC[C@H](CNc3cccnn3)C(F)(F)C2)cc1 [E1-24.2^B′] . Reported IC50?
Reply: 25

----------
Field: pIC50. Provide a value for each of the molecules that follow.
testTarget: human NR1/NR2B (Homo sapiens (Human), UniProt Q05586+Q13224)
protocolDescription: NR2B antagonist activity: calcium influx (Fluo-4) assay in HEK293 cells
Assay type: cell-based
conditionSummary: Table 1.3B; read-out: NR2B IC50
Answers are plain numbers, as −log10 of the molar value.

Field: example entries. Status: answers known.
> print(dat)
                                   molecule  measvalue
1  Cc1ccc(COC(=O)N2CC[C@@H](CNc3nccn4cnnc34)C(F)(F)C2)cc1 [E2-1.2^B′]       6.81
2  CCc1ccc(COC(=O)N2CC[C@H](CNc3nccn4cnnc34)C(F)(F)C2)cc1 [E1-1.5^B′]       8.02
3  Cc1ccc(COC(=O)N2CC[C@H](CNc3cnccn3)C(F)(F)C2)cc1 [E1-21.2^B′]       7.86

Each molecule below has a reported value. Please supply its pIC50.
1. Cc1ccc(COC(=O)N2CC[C@H](CNc3nccn4cnnc34)C(F)(F)C2)cc1 [E1-1.2^B′]
2. Cc1ccc(COC(=O)N2CC[C@H](CNc3cnc(C)cn3)C(F)(F)C2)cc1 [E1-21.26^B′]
3. O=C(OCc1ccc(F)cc1)N1CC[C@H](CNc2nccn3cnnc23)C(F)(F)C1 [E1-1.4^B′]
4. O=C(OCc1ccc(Cl)cc1)N1CC[C@H](CNc2nccn3cnnc23)C(F)(F)C1 [E1-1.3^B′]

Reply:
1. 7.68
2. 7.54
3. 7.69
4. 7.83

The origin of these recorded values is patent US11752155B2.
